Molecular target: Human recombinant monoamine oxidase MAO-A (Homo sapiens)
Sequence (P21397 1-527): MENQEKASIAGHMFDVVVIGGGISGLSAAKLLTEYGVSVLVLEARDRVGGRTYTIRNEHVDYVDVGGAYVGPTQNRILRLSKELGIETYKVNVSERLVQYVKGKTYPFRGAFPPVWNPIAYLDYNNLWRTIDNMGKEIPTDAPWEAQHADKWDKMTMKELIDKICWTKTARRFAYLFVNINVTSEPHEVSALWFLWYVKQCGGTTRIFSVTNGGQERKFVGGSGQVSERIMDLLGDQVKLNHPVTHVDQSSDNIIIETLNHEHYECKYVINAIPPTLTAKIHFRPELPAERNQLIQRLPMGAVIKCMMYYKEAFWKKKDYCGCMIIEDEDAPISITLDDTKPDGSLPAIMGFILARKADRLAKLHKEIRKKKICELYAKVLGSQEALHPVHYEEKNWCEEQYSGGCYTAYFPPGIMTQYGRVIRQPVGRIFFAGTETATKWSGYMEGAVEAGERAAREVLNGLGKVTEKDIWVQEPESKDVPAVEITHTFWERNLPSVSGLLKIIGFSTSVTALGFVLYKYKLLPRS
Assay: MAO-A inhibition, kynuramine fluorescence assay
measurement-type: IC50

# return recorded IC50 for input NC(=O)CN[C@@H]1C[C@H]1c1ccc(OCc2ccccc2)cc1 (relative stereo)
> 2000 nM

Return the recorded IC50 value; entry: "N[C@H]1CCN(CCN[C@H]2C[C@@H]2c2ccc(-c3cccc(C(F)(F)F)c3)cc2)C1"
> 500 nM

Data origin, for the record: patent US9908859B2
